Test system: DLD1-TxR cells
Assay: MTT assay, cell growth inhibition, DLD1-TxR (MDR)
Format: cell-based, human
Settings: Homo sapiens, 72 h, MDR cells
pIC50: −log10 of the molar value.
measurement.label: pIC50

>>> measured_value("CC(=O)Oc1cccc2c1C(=O)c1c(-c3ccncc3)noc1C2=O")
6.71
>>> measured_value("COc1cccc2c1C(=O)c1c(-c3ccncc3)noc1C2=O")
6.00

[1] O=C1c2ccccc2C(=O)c2c(-c3ccccn3)noc21
[2] O=C1c2ccccc2C(=O)c2c(-c3cc[n+](Cc4ccccc4)cc3)noc21
INPUT: Given the listed records, identify the one among 1 and 2 with higher pIC50. Returns: label corresponding to the selected item.
OUTPUT: 1
(1: 5.75, 2: 5.47)

###

System: NCI-H460/R cells
Assay: Combined treatment of compound 5 with DOX, MTT, median effect analysis
Assay type: cell-based, human
Details: Homo sapiens, NCI-H460, 72 h, DOX + 2.5 µM compound 5, 72 h
measurement.label: pIC50
The scale used: pIC50 is minus the common logarithm of the concentration in molar units.

INPUT: GET pIC50 | system: NCI-H460/R cells | item: O=C1c2ccccc2C(=O)c2c(-c3ccccc3O)noc21 [Compound 5]
OUTPUT: 5.76

###

Test system: NCI-H460/R cells
Experiment: MTT assay, cell growth inhibition, NCI-H460/R (MDR)
Format: cell-based, human
Conditions: Homo sapiens, NCI-H460, 72 h, MDR cells
pIC50: −log10 of the molar value.
measurement.label: pIC50

Recorded pIC50, per entry:
>>> measured_value("COc1cccc2c1C(=O)c1c(-c3ccncc3)noc1C2=O [Compound 13]")
5.97
>>> measured_value("O=C1c2ccccc2C(=O)c2c(-c3ccncc3)noc21 [Compound 7]")
6.64

[A] COc1cccc2c1C(=O)c1c(-c3cc[n+](Cc4ccccc4)cc3)noc1C2=O [Compound 14]
[B] O=C1c2ccccc2C(=O)c2c(-c3ccc(OCCN4CCOCC4)cc3)noc21 [Compound 6]
INPUT: Given the listed records, identify the one among A and B with higher pIC50. Returns: label corresponding to the selected item.
OUTPUT: B

###

Tested on: DLD1-TxR cells
Experiment: MTT assay, cell growth inhibition, DLD1-TxR (MDR)
Format: cell-based, human
Settings: Homo sapiens, 72 h, MDR cells
pIC50: −log10 of the molar value.
measurement.label: pIC50

Recorded pIC50, per entry:
>>> measured_value("COc1cccc2c1C(=O)c1c(-c3cc[n+](Cc4ccccc4)cc3)noc1C2=O")
4.97
>>> measured_value("O=C1c2ccccc2C(=O)c2c(-c3ccccc3)noc21")
6.19

[A] COc1ccc(-c2noc3c2C(=O)c2ccccc2C3=O)cc1
[B] O=C1c2ccccc2C(=O)c2c(-c3ccccc3O)noc21
INPUT: Hi there, can you help? I need to know whether A or B has lower measured pIC50. Returns: label corresponding to the selected item.
OUTPUT: B

[1] O=C1c2ccccc2C(=O)c2c(-c3cccnc3)noc21
[2] O=C1c2ccccc2C(=O)c2c(-c3ccncc3)noc21
[3] O=C1c2ccccc2C(=O)c2c(-c3ccc(OCCN4CCOCC4)cc3)noc21
INPUT: Which order do these items take when sorted by rising pIC50? List them. Kindly provide the labels arranged according to the requested ordering.
OUTPUT: 3, 2, 1

###

Test system: NCI-H460/R cells
Test: MTT assay, cell growth inhibition, NCI-H460/R (MDR)
Format: cell-based, human
Conditions: Homo sapiens, NCI-H460, 72 h, MDR cells
pIC50: −log10 of the molar value.
measurement.label: pIC50

Recorded pIC50, per entry:
>>> measured_value("O=C1c2ccccc2C(=O)c2c(-c3cccnc3)noc21")
6.76
>>> measured_value("O=C1c2ccccc2C(=O)c2c(-c3ccccc3)noc21")
6.22

[P] O=C1c2ccccc2C(=O)c2c(-c3ccccn3)noc21
[Q] COc1ccc(-c2noc3c2C(=O)c2ccccc2C3=O)cc1
[R] O=C1c2ccccc2C(=O)c2c(-c3cc[n+](Cc4ccccc4)cc3)noc21
[S] CC(=O)Oc1cccc2c1C(=O)c1c(-c3ccncc3)noc1C2=O
[T] O=C1c2ccccc2C(=O)c2c(-c3ccccc3O)noc21
INPUT: Reorder: pIC50, max to min. Kindly provide the labels arranged according to the requested ordering.
OUTPUT: S, R, Q, P, T
(S: 7.41, R: 6.45, Q: 6.24, P: 5.86, T: 4.59)

Recorded values, source paper PMC6770006.
